assay: Pharmacokinetics after IV dose in mice; details: mouse, in vivo; 1 mg/kg IV, male C57BL/6 mice
Binary label based on AUC(0-inf) with cut-off 3000 ng·h/mL: below gives Fulfilled, not below gives Not fulfilled.

{"compound": "CCCCCCC(C)(C)c1cc(O)c2c(c1)OC(C)(C)[C@@H]1CC=C(C(=O)OC(C)C)C[C@@H]21 [Compound 29]", "class.assignment": "Not fulfilled"}
{"compound": "CCCCCCC(C)(C)c1cc(O)c2c(c1)OC(C)(C)[C@@H]1CC=C(C(=O)NC[C@@H](O)CO)C[C@@H]21 [Compound 55]", "class.assignment": "Fulfilled"}
{"compound": "CCCCCCC(C)(C)c1cc(O)c2c(c1)OC(C)(C)[C@@H]1CC=C(C(=O)NC[C@H](O)CO)C[C@@H]21 [Compound 56]", "class.assignment": "Fulfilled"}

Take the compound CCCCCCC(C)(C)c1cc(O)c2c(c1)OC(C)(C)[C@@H]1CC=C(C(=O)O)C[C@@H]21 [AJA, reference compound] and say whether its AUC(0-inf) is less than 3000 ng·h/mL. Fulfilled

Take the compound CCCCCCC(C)(C)c1cc(O)c2c(c1)OC(C)(C)[C@@H]1CC=C(C(=O)NC(C)(C)CCO)C[C@@H]21 [Compound 15] and say whether its AUC(0-inf) is less than 3000 ng·h/mL. Fulfilled

---

Assay: Pharmacokinetics after IV dose in mice
Conditions: male, C57BL/6, mouse, in vivo, iv, 1 mg/kg, 1 mg/kg IV, male C57BL/6 mice; read-out: AUC0-24 hr
Method: Male C57BL/6 mice were administered an intravenous (IV) dose of 1 mg/kg of the indicated compound.
Answer each item with its documented AUC(0-t).
Field: value (include unit after the number)

The following molecules have reported results that may help.
{"molecule": "CCCCCCC(C)(C)c1cc(O)c2c(c1)OC(C)(C)[C@@H]1CC=C(C(=O)O)C[C@@H]21 [AJA, reference compound]", "AUC(0-t)": "2770 ng·h/mL"}
{"molecule": "CCCCCCC(C)(C)c1cc(O)c2c(c1)OC(C)(C)[C@@H]1CC=C(C(=O)NC(C)(C)CCO)C[C@@H]21", "AUC(0-t)": "1720 ng·h/mL"}

# batch: return AUC(0-t) for each of the 2 molecules below
1. CCCCCCC(C)(C)c1cc(O)c2c(c1)OC(C)(C)[C@@H]1CC=C(C(=O)OC(C)C)C[C@@H]21
2. CCCCCCC(C)(C)c1cc(O)c2c(c1)OC(C)(C)[C@@H]1CC=C(C(=O)NC[C@H](O)CO)C[C@@H]21

1: 3550 ng·h/mL; 2: 2080 ng·h/mL

What value of measured AUC(0-t) is listed for `CCCCCCC(C)(C)c1cc(O)c2c(c1)OC(C)(C)[C@@H]1CC=C(C(=O)NC[C@@H](O)CO)C[C@@H]21` ? 2360 ng·h/mL

---

target: CB2 receptor (Homo sapiens); assay: cell-based; set-up: host or cells: cAMP Hunter cell lines
Answer each item with its documented pEC50.
Answers are plain numbers, as −log10 of the molar value.

The following compounds have reported results that may help.
{"compound": "CCCC(C)(C)c1cc(O)c2c(c1)OC(C)(C)[C@@H]1CC=C(C(=O)O)C[C@@H]21", "pEC50": 7.43}
{"compound": "CCCCCCC(C)(C)c1cc(O)c2c(c1)OC(C)(C)[C@@H]1CC=C(C(=O)O)C[C@@H]21 [AJA, reference compound]", "pEC50": 7.96}
{"compound": "CCCC(C)(C)c1cc(O)c2c(c1)OC(C)(C)[C@@H]1CC=C(C(=O)NC3CCCC3)C[C@@H]21", "pEC50": 7.75}
{"compound": "CCCCCCC(C)(C)c1cc(O)c2c(c1)OC(C)(C)[C@@H]1CC=C(C(=O)NC3CCCC3)C[C@@H]21", "pEC50": 8.85}
{"compound": "CCCCCCC(C)(C)c1cc(O)c2c(c1)OC(C)(C)[C@@H]1CC=C(C(=O)NS(C)(=O)=O)C[C@@H]21", "pEC50": 7.53}
{"compound": "CCCCCCC(C)(C)c1cc(O)c2c(c1)OC(C)(C)[C@@H]1CC=C(C(=O)NC(C)C)C[C@@H]21", "pEC50": 8.77}

Let us move to another entry and its pEC50.
What value of measured pEC50 is listed for `CCCCCCC(C)(C)c1cc(O)c2c(c1)OC(C)(C)[C@@H]1CC=C(C(=O)NC(C)=N)C[C@@H]21` ? 8.37

---

target: CB1 receptor (Homo sapiens); experiment: cAMP Assay #1: CB1 adenylylcyclase assay in CHO cells; format: cell-based; set-up: expressed in transfected cells; host or cells: CHO cells
Sequence (P21554 whole entry): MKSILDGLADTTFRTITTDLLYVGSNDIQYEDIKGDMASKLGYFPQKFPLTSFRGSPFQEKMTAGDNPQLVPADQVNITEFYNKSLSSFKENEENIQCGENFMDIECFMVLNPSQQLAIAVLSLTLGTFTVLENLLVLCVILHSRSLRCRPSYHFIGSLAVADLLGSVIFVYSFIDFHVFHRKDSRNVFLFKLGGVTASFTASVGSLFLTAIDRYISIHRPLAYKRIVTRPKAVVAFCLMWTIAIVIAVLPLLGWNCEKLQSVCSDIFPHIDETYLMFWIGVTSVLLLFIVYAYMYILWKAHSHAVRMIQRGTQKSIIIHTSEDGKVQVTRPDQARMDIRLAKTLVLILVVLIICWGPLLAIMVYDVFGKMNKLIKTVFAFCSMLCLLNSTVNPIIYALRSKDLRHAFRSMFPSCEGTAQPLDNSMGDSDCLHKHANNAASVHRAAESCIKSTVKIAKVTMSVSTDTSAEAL
Answer each item with its documented EC50.

{"compound": "CC(C)(c1ccccc1)c1cc(O)c2c(c1)OC(C)(C)[C@@H]1CC=C(C(=O)O)C[C@@H]21 [Compound 35]", "EC50": "> 300 nM"}

# batch: return EC50 for each of the 7 compounds below
1. CCCCCCC(C)(C)c1cc(O)c2c(c1)OC(C)(C)[C@@H]1CC=C(C(=O)OC)C[C@@H]21 [Compound 28]
2. CCCCCCC(C)(C)c1cc(O)c2c(c1)OC(C)(C)[C@@H]1CC=C(C(=O)NCCO)C[C@@H]21 [Compound 5]
3. CCCCCCC(C)(C)c1cc(OC)c2c(c1)OC(C)(C)[C@@H]1CC=C(C(=O)O)C[C@@H]21 [Compound 34]
4. CCCCCCC(C)(C)c1cc(O)c2c(c1)OC(C)(C)[C@@H]1CC=C(C(=O)OC(C)C)C[C@@H]21 [Compound 29]
5. CCCCCCC(C)(C)c1cc(O)c2c(c1)OC(C)(C)[C@@H]1CC=C(C(=O)NC3CC3)C[C@@H]21 [Compound 6]
6. CCCCCCC(C)(C)c1cc(O)c2c(c1)OC(C)(C)[C@@H]1CC=C(C(=O)O)C[C@@H]21 [AJA, reference compound]
7. CCCCCCC(C)(C)c1cc(O)c2c(c1)OC(C)(C)c1ccc(C(=O)O)cc1-2 [Compound 31]

1. 8.2 nM
2. < 3 nM
3. > 300 nM
4. 6.8 nM
5. < 3 nM
6. 4.6 nM
7. > 100 nM

---

target: CB2 receptor (Homo sapiens, UniProt P34972); test: CB2 competitive radioligand binding assay ([3H] WIN-55,212-2); set-up: expressed in transfected cells; host or cells: CHO-K1 cells; conditions: Table 2, ratio of Ki CB1/CB2
Sequence (P34972 whole entry): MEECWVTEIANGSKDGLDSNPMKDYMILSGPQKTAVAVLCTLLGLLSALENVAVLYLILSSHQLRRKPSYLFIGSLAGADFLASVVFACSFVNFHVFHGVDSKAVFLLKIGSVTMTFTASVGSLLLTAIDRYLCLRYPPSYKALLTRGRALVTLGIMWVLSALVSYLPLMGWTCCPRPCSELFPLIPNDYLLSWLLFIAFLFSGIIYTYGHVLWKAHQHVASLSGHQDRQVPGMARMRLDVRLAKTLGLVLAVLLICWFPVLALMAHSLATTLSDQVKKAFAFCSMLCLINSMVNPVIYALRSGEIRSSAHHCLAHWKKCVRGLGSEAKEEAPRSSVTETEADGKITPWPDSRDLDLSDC
Answer each item with its documented Fold Selectivity (CB1/CB2).
Numbers only.

{"molecule": "CCCCCCC(C)(C)c1cc(O)c2c(c1)OC(C)(C)[C@@H]1CC=C(C(=O)NC[C@@H](O)CO)C[C@@H]21", "Fold Selectivity (CB1/CB2)": 19}
{"molecule": "CCCCCCC(C)(C)c1cc(OC(C)=O)c2c(c1)OC(C)(C)[C@@H]1CC=C(C#N)C[C@@H]21", "Fold Selectivity (CB1/CB2)": 4}
{"molecule": "CCCCCCC(C)(C)c1cc(O)c2c(c1)OC(C)(C)[C@@H]1CC=C(C(=O)NC3CCCCC3)C[C@@H]21", "Fold Selectivity (CB1/CB2)": 4}
{"molecule": "CCCCCCC(C)(C)c1cc(O)c2c(c1)OC(C)(C)[C@@H]1CC=C(C(=O)NCC(O)CO)C[C@@H]21 (some centres unmarked)", "Fold Selectivity (CB1/CB2)": 35}

Let us move to another entry and its Fold Selectivity (CB1/CB2).
What value of measured Fold Selectivity (CB1/CB2) is listed for `CCCCCCC(C)(C)c1cc(O)c2c(c1)OC(C)(C)[C@@H]1CC=C(C(=O)N[C@H](C)CCO)C[C@@H]21` ? 22

---

Answer each item with its documented inhibition at 0.05 µM.
molecular target: CB2 receptor (Homo sapiens, UniProt P34972); experiment: CB2 competitive radioligand binding assay ([3H] WIN-55,212-2); design: expressed in transfected cells; host or cells: CHO-K1 cells; settings: 0.05 μM compound, 2.4 nM [3H] WIN-55,212-2, 90 min 37° C.

The following molecules have reported results that may help.
{"molecule": "CCCCCCC(C)(C)c1cc(O)c2c(c1)OC(C)(C)[C@@H]1CC=C(C(=O)NCCCO)C[C@@H]21", "measurement.kind": "inhibition at 0.05 µM", "observed.measurement": "68%"}
{"molecule": "CCCCCCC(C)(C)c1cc(O)c2c(c1)OC(C)(C)[C@@H]1CC=C(C(=O)OC(C)C)C[C@@H]21", "measurement.kind": "inhibition at 0.05 µM", "observed.measurement": "79%"}
{"molecule": "CCCCCCC(C)(C)c1cc(O)c2c(c1)OC(C)(C)[C@@H]1CC=C(C(=O)O)C[C@@H]21 [AJA, reference compound]", "measurement.kind": "inhibition at 0.05 µM", "observed.measurement": "0%"}
{"molecule": "CCCCCCC(C)(C)c1cc(O)c2c(c1)OC(C)(C)[C@@H]1CC=C(C(=O)N[C@H]3CC[C@@H](O)CC3)C[C@@H]21", "measurement.kind": "inhibition at 0.05 µM", "observed.measurement": "26%"}
{"molecule": "CCCCCCC(C)(C)c1cc(O)c2c(c1)OC(C)(C)[C@H]1CC=C(C(=O)O)C[C@H]21", "measurement.kind": "inhibition at 0.05 µM", "observed.measurement": "9%"}
{"molecule": "CCCCCCC(C)(C)c1cc(O)c2c(c1)OC(C)(C)[C@@H]1CC=C(C(=O)Oc3ccc(C(N)=S)cc3)C[C@@H]21", "measurement.kind": "inhibition at 0.05 µM", "observed.measurement": "11%"}
{"molecule": "CCCCCCC(C)(C)c1cc(O)c2c(c1)OC(C)(C)[C@@H]1CC=C(C(=O)OC)C[C@@H]21", "measurement.kind": "inhibition at 0.05 µM", "observed.measurement": "77%"}
{"molecule": "CCCCCCC(C)(C)c1cc(OC(C)=O)c2c(c1)OC(C)(C)[C@@H]1CC=C(C#N)C[C@@H]21", "measurement.kind": "inhibition at 0.05 µM", "observed.measurement": "115%"}
{"molecule": "CCCCCCC(C)(C)c1cc(O)c2c(c1)OC(C)(C)[C@@H]1CC=C(C(=O)NCC(=O)O)C[C@@H]21", "measurement.kind": "inhibition at 0.05 µM", "observed.measurement": "4%"}
{"molecule": "CCCCCCC(C)(C)c1cc(O)c2c(c1)OC(C)(C)[C@@H]1CC=C(C(=O)NCC(O)CO)C[C@@H]21 (stereo partly shown)", "measurement.kind": "inhibition at 0.05 µM", "observed.measurement": "60%"}

# batch: return inhibition at 0.05 µM for each of the 3 molecules below
1. CCCCCCC(C)(C)c1cc(O)c2c(c1)OC(C)(C)[C@@H]1CC=C(C(=O)N[C@H](C)C(=O)O)C[C@@H]21
2. CCCCCCC(C)(C)c1cc(O)c2c(c1)OC(C)(C)[C@@H]1CC=C(C(=O)NC(C)(C)CCO)C[C@@H]21
3. CCCCCCC(C)(C)C1=CC2=C(C(=O)C1=O)[C@@H]1CC(C(=O)O)=CC[C@H]1C(C)(C)O2

1. 0%
2. 54%
3. -2%
